B1: TRIM29 (parent)
chain: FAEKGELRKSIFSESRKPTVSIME

# Variants of: B1
# PROCEDURE_TEXT: protein stability index of a GFP-peptide fusion (GPS, HEK-293T) (PSI 1-6); higher = more stable;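 also: lentivirally expressed fusions sorted by FACS into six bins by GFP to DsRed ratio, PSI derived from sequencing read proportions per bin multiplied by bin number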
# MEASUREMENT_SETUP: c terminus: a fixed tail appended
Recorded protein stability index by entry

[
  {
    "VARIANT_ANNOTATION": "S10D",
    "protein stability index": 2.12
  },
  {
    "VARIANT_ANNOTATION": "I11A",
    "protein stability index": 2.05
  },
  {
    "VARIANT_ANNOTATION": "L7M",
    "protein stability index": 2.02
  },
  {
    "VARIANT_ANNOTATION": "K17S",
    "protein stability index": 1.82
  },
  {
    "VARIANT_ANNOTATION": "A2H",
    "protein stability index": 2.07
  },
  {
    "VARIANT_ANNOTATION": "K4F",
    "protein stability index": 1.77
  },
  {
    "VARIANT_ANNOTATION": "E14R",
    "protein stability index": 1.49
  },
  {
    "VARIANT_ANNOTATION": "A2Y",
    "protein stability index": 2.88
  },
  {
    "VARIANT_ANNOTATION": "F12L",
    "protein stability index": 2.41
  },
  {
    "VARIANT_ANNOTATION": "E6S",
    "protein stability index": 1.8
  },
  {
    "VARIANT_ANNOTATION": "F12M",
    "protein stability index": 3.49
  },
  {
    "VARIANT_ANNOTATION": "S21N",
    "protein stability index": 2.11
  },
  {
    "VARIANT_ANNOTATION": "L7I",
    "protein stability index": 2.18
  },
  {
    "VARIANT_ANNOTATION": "I11K",
    "protein stability index": 3.22
  },
  {
    "VARIANT_ANNOTATION": "F1L",
    "protein stability index": 3.14
  },
  {
    "VARIANT_ANNOTATION": "L7V",
    "protein stability index": 1.62
  },
  {
    "VARIANT_ANNOTATION": "E6N",
    "protein stability index": 1.36
  },
  {
    "VARIANT_ANNOTATION": "F1E",
    "protein stability index": 4.13
  },
  {
    "VARIANT_ANNOTATION": "K9C",
    "protein stability index": 3.57
  },
  {
    "VARIANT_ANNOTATION": "S21Y",
    "protein stability index": 2.15
  }
]
